Biological target: human mAChR M4 (Homo sapiens, UniProt P08173)
Construct: expressed in transfected cells
Sequence (P08173 1-479): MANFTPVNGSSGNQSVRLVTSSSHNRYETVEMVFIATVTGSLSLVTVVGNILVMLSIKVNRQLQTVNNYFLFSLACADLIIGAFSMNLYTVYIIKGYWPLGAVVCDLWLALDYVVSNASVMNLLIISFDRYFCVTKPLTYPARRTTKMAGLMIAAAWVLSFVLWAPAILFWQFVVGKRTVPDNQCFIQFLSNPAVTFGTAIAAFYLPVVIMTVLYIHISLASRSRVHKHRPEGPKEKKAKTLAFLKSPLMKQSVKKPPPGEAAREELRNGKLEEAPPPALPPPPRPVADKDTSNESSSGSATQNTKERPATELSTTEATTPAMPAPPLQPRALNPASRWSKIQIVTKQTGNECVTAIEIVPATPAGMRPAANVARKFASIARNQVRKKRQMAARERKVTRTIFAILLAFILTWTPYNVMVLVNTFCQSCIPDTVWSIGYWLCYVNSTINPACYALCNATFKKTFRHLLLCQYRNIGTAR
Assay: mAChR M4 cell-based functional assay (calcium mobilization, CHO-K1 hM4-Gqi5 cells)
Conditions: CHO-K1, % ACh maximum at 30 μM; human M4
PARAMETER_MEASURED: Emax at 30 µM (%)

Observe how each entry below is paired with its result.
Cc1c(C#N)nnc(N2Cc3cc(C(F)(F)F)cnc3CC2C)c1C (stereo not shown) [Example 367] | 89
Cc1nn(C)cc1-c1cnc2c(c1)CN(c1nc(N3CCN(C)CC3)nc(C)c1C)CC2 [compound 275] | 86
Cc1cc(F)ncc1-c1cnc2c(c1)CN(c1ncc(C(=O)NCc3ccncc3)cc1C)CC2 [compound 177] | 91
Cc1cc(C#N)cnc1N1CCc2ncc(N3CCN(C)C(=O)C3)cc2C1 [Example 409] | 96
Cc1cc(C(=O)NCC2CCOCC2)cnc1N1CCc2ncc(-c3cn(C)nc3C)cc2C1 [Example 459] | 71
Cc1cc(C#N)c(-c2cccn2C)nc1N1CCc2ncc(C(F)(F)F)cc2C1 [Example 372] | 55

P: Cc1c(C#N)nnc(N2CCc3ncc(Nc4ccccc4C(F)(F)F)cc3C2)c1C [compound 43]
Q: Cc1cc(C(=O)N2CC(c3cccnc3)C2)nnc1N1CCc2ncc(N3CCCn4nccc43)cc2C1 [Example 526]
// compare: P vs Q , metric Emax at 30 µM, want the smaller Answer with the label corresponding to your selection.
P

a: Cc1c(C#N)nnc(N2CCc3ncc(-c4ccc(F)nc4)cc3C2)c1C [Example 334]
b: Cc1cc(C(=O)N2CC(C(F)F)C2)nnc1N1CCc2ncc(N3CCCn4nccc43)cc2C1 [Example 524]
// compare: a vs b , metric Emax at 30 µM, want the smaller Answer with the label corresponding to your selection.
a

I: Cc1cc(C#N)cnc1N1CCc2ncc(Nc3ccc(F)cc3)cc2C1 [Example 2]
II: COC(=O)c1ccc(CNC(=O)c2cnc(N3CCc4ncccc4C3)c(C)c2)cn1 [compound 142]
// compare: I vs II , metric Emax at 30 µM, want the smaller Answer with the label corresponding to your selection.
II
(II: 50%, I: 85%)

a: Cc1nc(Cl)c(C)c(N2CCc3ncc(Oc4ccc(F)cc4)cc3C2)n1 [compound 202]
b: Cc1cc(F)ncc1-c1cnc2c(c1)CN(c1nnc(C#N)c(C)c1C)CC2 [Example 320]
// compare: a vs b , metric Emax at 30 µM, want the smaller Answer with the label corresponding to your selection.
b
(b: 54%, a: 78%)
